Just for reference, paper PMC4659573 is where these values come from.

target: CDK6 (Homo sapiens, UniProt Q00534)
Sequence (Q00534 whole entry): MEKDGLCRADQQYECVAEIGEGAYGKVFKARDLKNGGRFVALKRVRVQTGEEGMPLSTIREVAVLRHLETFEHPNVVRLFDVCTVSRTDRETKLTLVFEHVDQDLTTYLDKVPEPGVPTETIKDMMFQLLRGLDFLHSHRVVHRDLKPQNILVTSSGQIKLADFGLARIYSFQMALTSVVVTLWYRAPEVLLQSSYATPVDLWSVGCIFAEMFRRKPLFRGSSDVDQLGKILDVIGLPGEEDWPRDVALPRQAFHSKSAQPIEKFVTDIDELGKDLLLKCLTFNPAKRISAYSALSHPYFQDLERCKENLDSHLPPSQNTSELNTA
Sequence (P24385 whole entry partner): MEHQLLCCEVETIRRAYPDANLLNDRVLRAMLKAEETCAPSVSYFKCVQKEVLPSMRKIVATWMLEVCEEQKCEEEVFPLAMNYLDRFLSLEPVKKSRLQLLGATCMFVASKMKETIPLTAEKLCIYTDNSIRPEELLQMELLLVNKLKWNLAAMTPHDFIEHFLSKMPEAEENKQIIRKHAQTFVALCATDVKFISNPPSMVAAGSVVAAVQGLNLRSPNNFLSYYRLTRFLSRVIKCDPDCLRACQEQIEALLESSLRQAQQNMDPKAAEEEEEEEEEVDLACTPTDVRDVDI
readout_name: IC50 (µM)
Quick reminder: number only, in µM, skip the unit.

// field: IC50; key: CN1CC[C@@H](c2c(O)cc(O)c3c(=O)cc(-c4ccc(C(F)(F)F)cc4Cl)oc23)[C@@H]1CO [P1446A] ; value = 0.21

* * *

readout_name: pIC50
Keep it numeric: pIC50 is minus log10 of the concentration in mol/L.

Entry CN1CC[C@@H](c2c(O)cc(O)c3c(=O)cc(-c4ccc(C(F)(F)F)cc4Cl)oc23)[C@@H]1CO [P1446A] , tested on CDK4 (Homo sapiens), has a reported pIC50 of 7.05

* * *

target: UniProt Q00535
Sequence (Q00535 whole entry): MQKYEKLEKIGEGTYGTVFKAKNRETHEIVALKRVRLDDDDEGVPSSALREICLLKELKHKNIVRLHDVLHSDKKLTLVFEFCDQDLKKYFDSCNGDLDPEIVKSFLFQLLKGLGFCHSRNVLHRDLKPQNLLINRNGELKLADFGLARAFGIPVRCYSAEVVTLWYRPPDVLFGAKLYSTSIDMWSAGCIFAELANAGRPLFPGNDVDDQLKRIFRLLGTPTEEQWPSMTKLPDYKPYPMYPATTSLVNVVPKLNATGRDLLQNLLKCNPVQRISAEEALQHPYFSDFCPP
Sequence (Q15078 99-307 partner limits assumed): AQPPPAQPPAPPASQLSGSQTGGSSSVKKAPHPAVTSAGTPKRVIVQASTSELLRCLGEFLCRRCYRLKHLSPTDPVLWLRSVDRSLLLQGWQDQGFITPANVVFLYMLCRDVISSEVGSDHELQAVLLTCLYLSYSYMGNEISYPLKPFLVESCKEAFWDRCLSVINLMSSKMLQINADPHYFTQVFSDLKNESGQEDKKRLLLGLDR
readout_name: pIC50
Keep it numeric: pIC50 is minus log10 of the concentration in mol/L.

// field: pIC50; key: CN1CC[C@@H](c2c(O)cc(O)c3c(=O)cc(-c4ccc(C(F)(F)F)cc4Cl)oc23)[C@@H]1CO [P1446A] ; value = 6.68
